The reported measurements were obtained from patent US20220017491A1.

Recorded Inhibition(%) for the following compounds
system: YAP-TEAD; experiment: Luciferase assay of YAP-TEAD binding inhibition (TEAD luciferase reporter 8XGTIIC in HEK293T cells); assay type: cell-based; conditions: 10 μM, 24 hours, luciferase normalized with β-galactosidase

- Compound: "COCCCN1C(=O)c2cccc3c(NC(=O)C4CCCN(S(=O)(=O)c5ccccc5)C4)ccc1c23 (stereo not shown)"
  Assay target: "YAP-TEAD"
  Inhibition(%): "87%"
- Compound: "COCCCN1C(=O)c2cccc3c(NC(=O)C4CCCN(S(=O)(=O)c5ccc6c(c5)OC(F)(F)O6)C4)ccc1c23 (stereo not shown)"
  Assay target: "YAP-TEAD"
  Inhibition(%): "59%"
- Compound: "O=C(Nc1ccc2c3c(cccc13)C(=O)N2CCc1ccc([N+](=O)[O-])cc1)C1CCCCN1S(=O)(=O)c1cccs1 (stereo not shown)"
  Assay target: "YAP-TEAD"
  Inhibition(%): "77%"
- Compound: "COCCCN1C(=O)c2cccc3c(NC(=O)C4CCCCN4S(=O)(=O)c4ccccc4)ccc1c23 (stereo not shown)"
  Assay target: "YAP-TEAD"
  Inhibition(%): "79%"
- Compound: "COCCCN1C(=O)c2cccc3c(NC(=O)C4CCCN(S(=O)(=O)c5ccc(-c6ccccc6)cc5)C4)ccc1c23 (stereo not shown)"
  Assay target: "YAP-TEAD"
  Inhibition(%): "57%"
- Compound: "COc1ccc(CCN2C(=O)c3cccc4c(NC(=O)C5CCC(NS(=O)(=O)c6cccs6)CC5)ccc2c34)cc1 (stereo not shown)"
  Assay target: "YAP-TEAD"
  Inhibition(%): "78%"
- Compound: "COCCCN1C(=O)c2cccc3c(NC(=O)C4CCCCN4S(=O)(=O)c4ccc(Br)s4)ccc1c23 (stereo not shown)"
  Assay target: "YAP-TEAD"
  Inhibition(%): "67%"

----------
test system: YAP-TEAD; assay: Luciferase assay of YAP-TEAD binding inhibition (TEAD luciferase reporter 8XGTIIC in HEK293T cells); type: cell-based; conditions: 10 μM, 24 hours, luciferase normalized with β-galactosidase
Consider the following compounds and their measured Inhibition(%) readings.

- Compound: "COCCCN1C(=O)c2cccc3c(NC(=O)C4CCCCN4S(=O)(=O)c4c(Cl)nc5sccn45)ccc1c23 (stereo not shown)"
  Unit of measure: "%"
  Inhibition(%): 53
- Compound: "N#CCCN1C(=O)c2cccc3c(NC(=O)C4CCCCN4S(=O)(=O)c4cccs4)ccc1c23 (stereo not shown)"
  Unit of measure: "%"
  Inhibition(%): 59
- Compound: "COC(C)(C)CCN1C(=O)c2cccc3c(NC(=O)C4CCCCN4S(=O)(=O)c4cccs4)ccc1c23 (stereo not shown)"
  Unit of measure: "%"
  Inhibition(%): 65
- Compound: "COCCCN1C(=O)c2cccc3c(NC(=O)C4CCCCN4S(=O)(=O)c4ccc5c(c4)OCCO5)ccc1c23 (stereo not shown)"
  Unit of measure: "%"
  Inhibition(%): 92
- Compound: "COc1ccc(CCN2C(=O)c3cccc4c(NC(=O)[C@H]5CC[C@H](NS(=O)(=O)c6cccs6)CC5)ccc2c34)cc1"
  Unit of measure: "%"
  Inhibition(%): 61
- Compound: "COCCCN1C(=O)c2cccc3c(NC(=O)C4CCCCN4S(=O)(=O)c4ccc(NC(C)=O)cc4)ccc1c23 (stereo not shown)"
  Unit of measure: "%"
  Inhibition(%): 55
- Compound: "COCCCN1C(=O)c2cccc3c(NC(=O)C4CCCCN4S(=O)(=O)c4cc(Br)c(Br)s4)ccc1c23 (stereo not shown)"
  Unit of measure: "%"
  Inhibition(%): 77
